These data points were gathered from ChEMBL document CHEMBL3112551.

- target-of-assay: 3',5'-cyclic-AMP phosphodiesterase 4B (Homo sapiens)
- protocol-notes: Inhibition of PDE4B (unknown origin) expressed in HEK293 cells assessed as increase in forskolin-stimulated cAMP level at 30 uM preincubated for 30 mins followed by forskolin-stimulation measured after 4 hrs by luciferase reporter gene assay relative to control
- Type: functional, cell-based
Calls of active or inactive are those of the source. No cut-off for these calls is given here.
Result category, one only: TRUE for active, FALSE for inactive

Answered examples (3):
CS(=O)(=O)n1c(COCCN2COc3ccccc3C2=O)cc2cc(C#N)ccc21 : TRUE
CS(=O)(=O)n1c(COCCN2COc3ccccc3C2=O)cc2cc(Cl)ccc21 : TRUE
O=C1c2ccccc2OCN1CCOCc1cc2ccccc2o1 : TRUE

Challenge: What call does the record list for `CS(=O)(=O)n1c(COCCN2COc3ccccc3C2=O)cc2cc(F)ccc21` ?
Response given: TRUE

Challenge: Please state the recorded outcome for this compound: `CC(=O)c1ccc2c(c1)cc(COCCN1COc3ccccc3C1=O)n2S(C)(=O)=O`
Response given: FALSE

Challenge: Please let me know the test result on file for `CS(=O)(=O)n1c(COCCN2COc3ccccc3C2=O)cc2cc(C(F)(F)F)ccc21` .
Response given: TRUE
